The values you see were collected from patent US8048884B2.

Measured on: 5-HT2B (Homo sapiens)
Sequence (P41595 whole entry, species assumed): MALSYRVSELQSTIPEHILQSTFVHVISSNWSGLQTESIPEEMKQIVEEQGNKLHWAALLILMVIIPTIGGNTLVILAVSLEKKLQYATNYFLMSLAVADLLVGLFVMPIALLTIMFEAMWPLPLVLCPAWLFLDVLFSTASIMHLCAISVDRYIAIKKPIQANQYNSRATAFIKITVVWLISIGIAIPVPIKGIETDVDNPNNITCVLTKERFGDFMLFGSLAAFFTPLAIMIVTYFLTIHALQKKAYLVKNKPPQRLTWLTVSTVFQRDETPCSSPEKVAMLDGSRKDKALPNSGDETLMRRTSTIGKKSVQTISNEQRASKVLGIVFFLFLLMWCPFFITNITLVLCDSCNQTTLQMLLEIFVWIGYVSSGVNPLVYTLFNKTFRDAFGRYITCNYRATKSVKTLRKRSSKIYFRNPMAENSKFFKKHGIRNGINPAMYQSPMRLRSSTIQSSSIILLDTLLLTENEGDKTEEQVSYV
Counter-ions that a name gives are not always drawn.
Catalogue of Ki readings, one per entry.

# input What value of Ki on 5-HT2B (Homo sapiens) does COCc1ccc(-c2nccnc2N2CCN(CCN(C)S(=O)(=O)c3cnn(C)c3)CC2)cc1.Cl [Example 25, hydrochloride] have?
# output > 6.81 µM

# input What value of Ki on 5-HT2B (Homo sapiens) does CN(CCN1CCN(c2nccnc2-c2ccc(F)cc2)CC1)S(=O)(=O)c1cn(C)cn1 [Example 17, hydrochloride] have?
# output > 6.81 µM

----------
Measured on: alpha 1 adrenergic
Procedure details: Radioligand binding assay, alpha 1 adrenergic
Readout kind: pKi
Please treat pKi as minus the base-10 logarithm of the molar concentration.

# input Item under review: COCc1ccc(-c2nccnc2N2CCN(CCN(C)S(=O)(=O)c3cnn(C)c3)CC2)cc1.Cl [Example 25, hydrochloride] . Reported pKi?
# output 5.63

----------
Catalogue of pKi readings, one per entry.
Measured on: 5-HT6 (Homo sapiens)
Sequence (P50406 whole entry, species assumed): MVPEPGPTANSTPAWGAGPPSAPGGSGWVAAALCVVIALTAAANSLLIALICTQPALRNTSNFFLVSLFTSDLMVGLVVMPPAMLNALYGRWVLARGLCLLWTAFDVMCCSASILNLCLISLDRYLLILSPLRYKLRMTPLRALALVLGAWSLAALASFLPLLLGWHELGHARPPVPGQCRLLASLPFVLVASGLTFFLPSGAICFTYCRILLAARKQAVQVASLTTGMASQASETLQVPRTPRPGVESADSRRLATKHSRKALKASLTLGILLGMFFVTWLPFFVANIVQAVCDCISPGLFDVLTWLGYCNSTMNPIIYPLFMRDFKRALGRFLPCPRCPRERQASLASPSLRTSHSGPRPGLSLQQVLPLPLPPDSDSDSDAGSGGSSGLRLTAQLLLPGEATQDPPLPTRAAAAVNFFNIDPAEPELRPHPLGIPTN
pKi: −log10 of the molar value. Structures can show the parent of a compound that is named as a salt.

| Compound | Obs value |
| --- | --- |
| CN(CCN1CCN(c2nccnc2-c2ccc(F)cc2)CC1)S(=O)(=O)c1cn(C)cn1 [Example 17, hydrochloride] | < 5.23 |

Below: the item to evaluate.
# input What value of pKi on 5-HT6 (Homo sapiens) does COCc1ccc(-c2nccnc2N2CCN(CCN(C)S(=O)(=O)c3cnn(C)c3)CC2)cc1.Cl [Example 25, hydrochloride] have?
# output < 5.23

----------
Catalogue of Ki readings, one per entry.
Measured on: alpha 2 adrenergic
Procedure details: Radioligand binding assay, alpha 2 adrenergic
Structures can show the parent of a compound that is named as a salt.

| Compound | Ki |
| --- | --- |
| CN(CCN1CCN(c2nccnc2-c2ccc(F)cc2)CC1)S(=O)(=O)c1cn(C)cn1 [Example 17, hydrochloride] | > 2.43 µM |

# input What value of Ki on alpha 2 adrenergic does COCc1ccc(-c2nccnc2N2CCN(CCN(C)S(=O)(=O)c3cnn(C)c3)CC2)cc1.Cl [Example 25, hydrochloride] have?
# output > 5.29 µM

----------
pKi: −log10 of the molar value. Where a name gives a salt, the structure may show the parent alone.
# collection of pKi values tested on 5-HT2C (Homo sapiens, UniProt P28335)
# Sequence (P28335 33-458, species assumed): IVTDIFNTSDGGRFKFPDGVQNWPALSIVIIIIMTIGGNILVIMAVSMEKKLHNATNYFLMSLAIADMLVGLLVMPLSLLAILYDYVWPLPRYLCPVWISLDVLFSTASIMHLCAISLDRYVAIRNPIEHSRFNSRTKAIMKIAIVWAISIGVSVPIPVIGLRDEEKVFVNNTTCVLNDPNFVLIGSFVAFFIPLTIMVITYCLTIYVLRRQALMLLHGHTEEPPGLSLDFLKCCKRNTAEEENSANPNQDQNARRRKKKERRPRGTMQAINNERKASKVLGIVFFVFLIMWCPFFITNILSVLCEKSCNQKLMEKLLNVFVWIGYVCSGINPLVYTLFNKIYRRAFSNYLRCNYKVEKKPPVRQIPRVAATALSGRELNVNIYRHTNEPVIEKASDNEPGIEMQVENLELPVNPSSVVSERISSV

| Compound | Obs value |
| --- | --- |
| CN(CCN1CCN(c2nccnc2-c2ccc(F)cc2)CC1)S(=O)(=O)c1cn(C)cn1 [Example 17, hydrochloride] | < 5.08 |

Below: the item to evaluate.
# input What value of pKi on 5-HT2C (Homo sapiens, UniProt P28335) does COCc1ccc(-c2nccnc2N2CCN(CCN(C)S(=O)(=O)c3cnn(C)c3)CC2)cc1.Cl [Example 25, hydrochloride] have?
# output < 5.08

----------
Measured on: 5-HT4 (Homo sapiens)
Sequence (Q13639 whole entry, species assumed): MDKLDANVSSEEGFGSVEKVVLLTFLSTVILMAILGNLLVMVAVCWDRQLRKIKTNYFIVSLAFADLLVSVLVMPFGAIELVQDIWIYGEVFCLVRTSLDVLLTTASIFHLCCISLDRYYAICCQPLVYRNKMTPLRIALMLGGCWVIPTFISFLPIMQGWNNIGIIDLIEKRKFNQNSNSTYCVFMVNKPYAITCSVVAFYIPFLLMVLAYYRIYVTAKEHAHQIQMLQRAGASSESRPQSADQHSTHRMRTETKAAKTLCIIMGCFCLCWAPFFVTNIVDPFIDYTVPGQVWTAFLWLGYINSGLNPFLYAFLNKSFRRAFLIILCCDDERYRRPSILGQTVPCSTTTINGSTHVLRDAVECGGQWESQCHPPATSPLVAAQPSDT
pKi: −log10 of the molar value. Structures can show the parent of a compound that is named as a salt.
Catalogue of pKi readings, one per entry.

| Compound | pKi |
| --- | --- |
| CN(CCN1CCN(c2nccnc2-c2ccc(F)cc2)CC1)S(=O)(=O)c1cn(C)cn1 [Example 17, hydrochloride] | < 5.20 |

Below: the item to evaluate.
# input Item under review: COCc1ccc(-c2nccnc2N2CCN(CCN(C)S(=O)(=O)c3cnn(C)c3)CC2)cc1.Cl [Example 25, hydrochloride] . Reported pKi?
# output < 5.39

----------
Measured on: 5-HT1A (Homo sapiens)
Sequence (P08908 1-422): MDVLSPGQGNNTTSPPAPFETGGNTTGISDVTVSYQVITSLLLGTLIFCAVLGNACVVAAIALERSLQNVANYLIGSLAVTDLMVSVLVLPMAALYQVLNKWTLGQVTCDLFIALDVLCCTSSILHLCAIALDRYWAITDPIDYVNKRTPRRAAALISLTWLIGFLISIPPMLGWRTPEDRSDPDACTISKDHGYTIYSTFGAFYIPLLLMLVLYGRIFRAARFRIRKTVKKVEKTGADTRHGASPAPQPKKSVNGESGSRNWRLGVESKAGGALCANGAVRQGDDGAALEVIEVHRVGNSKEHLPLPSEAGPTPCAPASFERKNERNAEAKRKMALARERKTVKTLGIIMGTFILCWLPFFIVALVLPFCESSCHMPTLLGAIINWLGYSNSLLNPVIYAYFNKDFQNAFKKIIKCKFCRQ
Structures can show the parent of a compound that is named as a salt.
Readout kind: Ki (nM)
Provide the reading as a plain figure in nM.

| Molecule | Ki [nM] |
| --- | --- |
| COCc1ccc(-c2nccnc2N2CCN(CCN(C)S(=O)(=O)c3cnn(C)c3)CC2)cc1.Cl [Example 25, hydrochloride] | 2070 |

Below: the item to evaluate.
# input Item under review: CN(CCN1CCN(c2nccnc2-c2ccc(F)cc2)CC1)S(=O)(=O)c1cn(C)cn1 [Example 17, hydrochloride] . Reported Ki?
# output 1500

----------
Measured on: 5-HT5 (Homo sapiens)
Sequence (P47898 whole entry, species assumed): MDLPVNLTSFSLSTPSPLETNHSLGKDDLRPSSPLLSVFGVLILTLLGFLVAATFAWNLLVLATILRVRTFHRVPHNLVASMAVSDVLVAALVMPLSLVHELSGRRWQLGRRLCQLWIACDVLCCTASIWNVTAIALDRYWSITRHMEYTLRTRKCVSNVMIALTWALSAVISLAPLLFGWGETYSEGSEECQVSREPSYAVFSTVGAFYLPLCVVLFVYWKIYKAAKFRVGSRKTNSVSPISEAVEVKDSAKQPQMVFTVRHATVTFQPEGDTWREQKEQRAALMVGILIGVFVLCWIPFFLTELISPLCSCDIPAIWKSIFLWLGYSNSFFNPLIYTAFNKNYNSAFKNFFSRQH
Readout kind: pKi
Please treat pKi as minus the base-10 logarithm of the molar concentration.

# input Item under review: COCc1ccc(-c2nccnc2N2CCN(CCN(C)S(=O)(=O)c3cnn(C)c3)CC2)cc1.Cl [Example 25, hydrochloride] . Reported pKi?
# output 5.48
